test.details: Biochemical counterscreen for C difficile toxins, absence of UDPG, inhibitor dose response (AID 720650)
study.conditions: series mostly up to 19.5 µM
Calls of active or inactive are those of the source. How the calls were made is not given here.
Respond with a class label; see class 1 for active, class 0 for inactive

So what was the verdict on COc1ccc(C(=O)Nc2cc(Cl)ccc2C(=O)O)cc1 in this test?
class 1

So what was the verdict on COc1cc(OC)cc(C(=O)NNC(=O)CN2C(=O)NC(C)(c3ccc(C)cc3)C2=O)c1 (stereo unspecified) in this test?
class 0

So what was the verdict on CCOC(=O)c1nnn(-c2nonc2N)c1-c1ccc(F)cc1 in this test?
class 0

---
So what was the verdict on CC(C)OC(=O)C(=O)NNc1ccccc1 in this test?
class 1

So what was the verdict on CCOC(=O)c1nnn(-c2nonc2N)c1-c1ccccc1Cl in this test?
class 0

So what was the verdict on Cc1cccc(/C=C/c2onc(C)c2S(=O)(=O)N2CCC(C(=O)N3CCC(C)CC3)CC2)c1 in this test?
class 0

###

test.details: Biochemical counterscreen for C difficile toxins, absence of UDPG, inhibitor dose response (AID 720650)
study.conditions: series mostly up to 19.5 µM
Activity calls are given as the source filed them. How the calls were made is not given here.
Respond with a class label; see active, inactive

So what was the verdict on CCN1CC(CNCc2cn(-c3ccc(OC)cc3)nc2-c2ccccc2Cl)CC1=O (centres undefined) in this test?
inactive

So what was the verdict on O=C(COc1cccc(C(F)(F)F)c1)N1CCN(c2ccc(O)cc2)CC1 in this test?
inactive

So what was the verdict on Cc1onc(-c2ccccc2Cl)c1C(=O)Nc1cnn(Cc2ccccc2)c1 in this test?
inactive

So what was the verdict on CCCN1CCN(C(=O)C2CCN(S(=O)(=O)c3c(C)noc3/C=C/c3ccc(C)cc3)CC2)CC1 in this test?
inactive

So what was the verdict on CCOC(=O)c1ccc[n+](CC(=O)c2ccc(NC(=O)c3ccccc3)cc2)c1 in this test?
inactive

Now examine the next entry.
So what was the verdict on CCOC(=O)N1CCN(C(=S)NC(=O)c2ccc(F)c(F)c2)CC1 in this test?
inactive

###

test.details: Biochemical counterscreen for C difficile toxins, absence of UDPG, inhibitor dose response (AID 720650)
study.conditions: series mostly up to 19.5 µM
The source made the active and inactive calls. How the calls were made is not given here.
Respond with a class label; see label 1 = active, label 0 = inactive

Study these solved cases before continuing.
So what was the verdict on COc1ccc(C2=NS(=O)(=O)N(C)C(C(=O)N(C)Cc3ccccc3)=C2)cc1 in this test?
label 0

So what was the verdict on CN(C)c1ccc(Cl)c(NC(N)=S)c1 in this test?
label 1

So what was the verdict on COc1cc(NC(=O)CSc2nc3[nH]ncc3c(=O)n2-c2ccccc2C)cc(OC)c1OC in this test?
label 0

So what was the verdict on O=C(C[C@@H]1C[C@H]2c3cc(NC(=O)c4ccc5c(c4)OCO5)ccc3O[C@H]2[C@H](CO)O1)NCc1cccc(F)c1 in this test?
label 0

So what was the verdict on CCN(CC)C(=O)C1CCN(S(=O)(=O)c2c(C)noc2/C=C/c2cccc(C)c2)CC1 in this test?
label 0

So what was the verdict on O=C(COc1ccc(/C=N/NC(=O)c2ccc(O)cc2)cc1)Nc1cccc([N+](=O)[O-])c1 in this test?
label 0

---
So what was the verdict on Cn1c(=O)c2[nH]c(=S)n(Cc3ccccc3)c2n(C)c1=O in this test?
label 1

So what was the verdict on O=C(CNS(=O)(=O)c1ccc([N+](=O)[O-])cc1)N/N=C\c1ccc(O)cc1 in this test?
label 1

So what was the verdict on CNC(=O)C1CCN(S(=O)(=O)c2c(C)noc2/C=C/c2cccc(OC)c2)CC1 in this test?
label 0

So what was the verdict on COc1cc(/C=C(\C#N)C(=O)Nc2ccc3c(c2)OCCO3)ccc1O in this test?
label 0

So what was the verdict on COc1cc(/C=N/NC(=O)C2COc3ccccc3O2)ccc1O (stereo unspecified) in this test?
label 0
